- experimentDescription: photoluminescence quantum yield (fraction); solvent given as SMILES
- conditionInfo: in ClCCl
propertyLabel: photoluminescence quantum yield
Respond with the number and no other words.

Exercise: Name the reported photoluminescence quantum yield value associated with the compound CCC1=C(C)C2=C(c3ccc(-c4c5ccccc5c(-c5ccccc5)c5ccccc45)cc3)c3c(C)c(CC)c(C)n3[B-](F)(F)[N+]2=C1C
Solution: 0.744

Exercise: Dear colleague, I am looking for the recorded photoluminescence quantum yield of the following compound: CCn1c2ccccc2c2cc(C#Cc3cc(C#Cc4ccc5c(c4)c4ccccc4n5CC)nc(C#N)n3)ccc21
Solution: 0.65

Exercise: If you can, please state the reported photoluminescence quantum yield value of N#Cc1ccc2c(c1)CCc1nc(-c3ccc([N+](=O)[O-])cc3)c3c(c1-2)CCc1cc(C#N)ccc1-3 .
Solution: 0.292

More entries:
Exercise: If you can, please state the reported photoluminescence quantum yield value of COc1cc(N(c2ccccc2)c2ccccc2)ccc1C=C(C#N)C#N .
Solution: 0.016

Exercise: Given the compound CCCCC(CC)COc1ccc2nc(-c3ccc(-c4ccc(N(C)C)cc4)s3)sc2c1 (stereo not given) , what is its reported photoluminescence quantum yield?
Solution: 0.94

Exercise: State the recorded photoluminescence quantum yield for this entry: Cn1cc(/C=C/C(=O)c2ccccc2)c2ccccc21
Solution: 0.394

Exercise: What photoluminescence quantum yield value was documented for this compound, CCOC(=O)C1=C(C(=O)OCC)C2(c3cc(Cl)ccc3-c3ccc(Cl)cc32)C2(/C=C/c3ccccc3)c3cc(OC)c(OC)cc3CCN12 (stereo not given) ?
Solution: 0.00196

Exercise: Give its photoluminescence quantum yield value. Item: CC(=O)c1ccc2ccc3cccc4ccc1c2c34
Solution: 0.002

Exercise: Which photoluminescence quantum yield value belongs to CCCCc1ccc(C#Cc2ccc3nc4ccc(C#Cc5ccc(CCCC)cc5)cn4c(=O)c3c2)cc1 ?
Solution: 0.48

Exercise: Can you look up the measured photoluminescence quantum yield of COc1cc(OC)cc(C2=C3C(C)=C(I)C(/C=C/c4c[nH]c5ccc([N+](=O)[O-])cc45)=[N+]3[B-](F)(F)n3c(/C=C/c4c[nH]c5ccc([N+](=O)[O-])cc45)c(I)c(C)c32)c1 for me?
Solution: 0.02

Exercise: Suppose we examine the compound CC(C)CCCC(C)CCN1C(=O)c2ccc3c(-c4ccccc4)c4c5ccc6c7c(ccc(c(-c8ccccc8)c4c4ccc(c2c34)C1=O)c75)C(=O)N(CCC(C)CCCC(C)C)C6=O (stereo not given) ; what photoluminescence quantum yield value has been reported?
Solution: 0.13

Exercise: Look up photoluminescence quantum yield for this compound: CCCCCCCCCCCCN1C(=O)c2c(c3ccc4cc(-c5ccc(C=O)cc5)c(OC)cc4c3c3c2ccc2cc(-c4ccc(C=O)cc4)c(OC)cc23)C1=O
Solution: 0.157

Exercise: GET /values?readout=photoluminescence quantum yield&item= COc1ccc(C#Cc2ccc3nc4ccc(C#Cc5ccc(OC)cc5)cn4c(=O)c3c2)cc1
Solution: 0.52

----------
photoluminescence quantum yield by entry:
- experimentDescription: photoluminescence quantum yield (fraction); solvent given as SMILES
- conditionInfo: in CC#N
The answer should be written as a number, with no unit following it.

Exercise: Entry CCCn1c2cccc3c2[c+]2c4c1cccc4n(CCC)c1cccc(c12)n3CCC : reported photoluminescence quantum yield = ?
Solution: 0.16

Further cases:
Exercise: photoluminescence quantum yield for c1ccc2cc3cc(-c4cc(-c5nccs5)nc(-c5nccs5)c4)ccc3cc2c1 ?
Solution: 0.564

Exercise: # get_value(readout='photoluminescence quantum yield', item= c1cc2c3c(cccc3c1)C(N1CCOCCOCCOCCOCC1)=N2 )
Solution: 0.004

Exercise: # input compound: CN(CC(O)c1cccc(O)c1)c1ccc([N+](=O)[O-])c(C2CC(c3cccc4ccccc34)=NN2c2ccccc2)c1 (centres undefined) ; wanted: its photoluminescence quantum yield
Solution: 0.25

Exercise: Look up photoluminescence quantum yield: C=Cc1ccc(OC)c(OC)c1
Solution: 0.29

Exercise: For the compound COc1cc2c(cc1/C=C(\C#N)c1nc3ccccc3s1)c1ccccc1n2C , what photoluminescence quantum yield is on record?
Solution: 0.001

Exercise: # query: photoluminescence quantum yield of entry COc1ccc2nc(N)n[n+]([O-])c2c1
Solution: 0.472

Exercise: Reported photoluminescence quantum yield, compound CN(C)c1ccc(/C=C/c2nc3ccc(N(C)C)cc3oc2=O)cc1 : ____
Solution: 0.21

Exercise: Fill blank: measured photoluminescence quantum yield of the compound CCC1=C(C)C2=C(c3c4ccccc4c(-c4ccccc4)c4ccccc34)c3c(C)c(CC)c(C)n3[B-](F)(F)[N+]2=C1C is ____.
Solution: 0.422

Exercise: Give the measured photoluminescence quantum yield of CCCCC(CC)CN1C(=O)c2cccc3c(C#Cc4ccc(N(c5ccccc5)c5ccc(C#Cc6ccc7c8c(cccc68)C(=O)N(CC(CC)CCCC)C7=O)cc5)cc4)ccc(c23)C1=O (centres undefined) .
Solution: 0.012

----------
The entries below come with measured photoluminescence quantum yield values attached.
- experimentDescription: photoluminescence quantum yield (fraction); solvent given as SMILES
- conditionInfo: in C1CCOC1
// no unit string in output, number only

Exercise: So what does the record say about photoluminescence quantum yield for O=C1C2=C(O[B-](F)(F)[n+]3c2ccc2ccccc23)c2cccc3c(N4CCOCC4)ccc1c23 ?
Solution: 0.53

Exercise: I am curious: what photoluminescence quantum yield value has been reported for CCCCCCCCCCOc1ccc(C#Cc2ccc(C#Cc3ccc(OCCCCCCCCCC)c(OCCCCCCCCCC)c3)c3nc4c5ccccc5c5ccccc5c4nc23)cc1OCCCCCCCCCC ?
Solution: 0.23

Exercise: I'd like to know its photoluminescence quantum yield. The molecule in question is CC(=O)O[B-]1(OC(C)=O)OC(/C=C/c2ccc(C)cc2)=CC(/C=C/c2ccc(C)cc2)=[O+]1
Solution: 0.75

Exercise: Name the reported photoluminescence quantum yield value associated with the molecule CCn1c2ccccc2c2cc(/C=C/c3cc(/C=C/c4ccc5c(c4)c4ccccc4n5CC)ncn3)ccc21
Solution: 0.25

Exercise: Given CCn1c2ccccc2c2cc(C#Cc3cc(C#Cc4ccc5c(c4)c4ccccc4n5CC)nc(C#N)n3)ccc21 , state its recorded photoluminescence quantum yield.
Solution: 0.66

Exercise: // returns reported photoluminescence quantum yield for input O=[N+]([O-])c1ccc(F)cc1C1CC(c2cccc3ccccc23)=NN1c1ccccc1 (centres undefined)
Solution: 0.3

Exercise: I have this molecule here, O=C1c2cccc3c(-n4c5ccccc5c5ccccc54)ccc(c23)C(=O)N1C1CCCCC1 , and I need its recorded photoluminescence quantum yield.
Solution: 0.033

Exercise: # get_value(readout='photoluminescence quantum yield', item= CC(C)(C)c1ccc(-c2c(-c3ccc(-n4c5ccccc5c5ccccc54)cc3)c(C#N)c(-c3ccc(-n4c5ccccc5c5ccccc54)cc3)c(-c3ccc(C(C)(C)C)cc3)c2-c2ccc(C(C)(C)C)cc2)cc1 )
Solution: 0.803

Attention now shifts to the item below.
Exercise: State the recorded photoluminescence quantum yield for this entry: Cn1nc(-c2ccccc2)c2nc3cc(Cl)ccc3nc21
Solution: 0.27

----------
- experimentDescription: photoluminescence quantum yield (fraction); solvent given as SMILES
- conditionInfo: in CCO
Reported photoluminescence quantum yield values are given for each entry in this list.
Lab note: jot down the number only; don't add units.

Some compounds with known photoluminescence quantum yield results, for comparison:
Exercise: # lookup: photoluminescence quantum yield of CN(C)CCN(Cc1c2ccccc2cc2ccccc12)c1ccc([N+](=O)[O-])cn1
Solution: 0.0115

Exercise: What photoluminescence quantum yield value was documented for this compound, CC(C)(C)c1ccc2oc(-c3ccc(-c4nc5cc(C(C)(C)C)ccc5o4)s3)nc2c1 ?
Solution: 1

Could you now consider this next compound?
Exercise: Look at this compound and give its reported photoluminescence quantum yield. COc1ccc(-c2csc(/C(C#N)=C/c3ccc(C#N)cc3)n2)cc1
Solution: 0.008

----------
// reported photoluminescence quantum yield per item
- experimentDescription: photoluminescence quantum yield (fraction); solvent given as SMILES
- conditionInfo: in ClCCl
Lab note: record the figure alone, no unit after it.

Exercise: Returns the measured photoluminescence quantum yield for the input compound. Input: CCCCCCOc1ccc(C#Cc2ccc(C#CC#Cc3ccc(C#Cc4ccc(OCCCCCC)c(OCCCCCC)c4)c4nsnc34)c3nsnc23)cc1OCCCCCC
Solution: 0.36

Exercise: I'd like to know its photoluminescence quantum yield. The compound in question is CC(=O)c1ccc(C#Cc2ccc(-c3cc(N(C)C)c4ccccc4c3)cc2)cc1
Solution: 0.03

Exercise: I am curious: what photoluminescence quantum yield value has been reported for ClP1(Cl)=N[P@@](Cl)(Oc2ccc3ccc4cccc5ccc2c3c45)=N[P@@](Cl)(Oc2ccc3ccc4cccc5ccc2c3c45)=N1 ?
Solution: 0.7

Others:
Exercise: # input compound: Nc1cccc2c1ccc1[n+]2[B-](F)(F)n2c-1cc1c3ccccc3c3ccccc3c12 ; wanted: its photoluminescence quantum yield
Solution: 0.1

Exercise: Looking for the measured photoluminescence quantum yield of COc1ccc(/C=C/c2ccncn2)cc1 , can you help?
Solution: 0.01

Exercise: Report photoluminescence quantum yield for CCCCCCCCCCCCN1C(=O)c2cccc3c(N(Cc4ccccn4)Cc4ccccn4)c4ccccc4c(c23)C1=O please.
Solution: 0.12

Exercise: Reported photoluminescence quantum yield, compound CC(C)(C)c1ccc(C#Cc2cc3c(C#Cc4ccc(C(C)(C)C)cc4)c(C#Cc4ccc(C(C)(C)C)cc4)c4cc(C#Cc5ccc(C(C)(C)C)cc5)cc5c(C#Cc6ccc(C(C)(C)C)cc6)c(C#Cc6ccc(C(C)(C)C)cc6)c(c2)c3c45)cc1 : ____
Solution: 0.23

Exercise: Query (compound): COc1ccc2c(c1)sc1[n+]2[B-](F)(F)OC(c2ccc(N(C)C)cc2)=N1 ; field requested: photoluminescence quantum yield
Solution: 0.83

Exercise: Data request, read-out photoluminescence quantum yield, for c1ccc(-c2c3ccccc3nc3cc4ccccc4cc23)cc1
Solution: 0.4

Exercise: I have this compound here, C[Si]1(C)c2cc(-c3cccs3)ccc2C=Cc2ccc(-c3cccs3)cc21 , and I need its recorded photoluminescence quantum yield.
Solution: 0.77

Exercise: Fill in the blank: the reported photoluminescence quantum yield of CC(C)(C)c1ccc2c3c(c4ccc(C(C)(C)C)cc4c2c1)=[N+]1C(=C(c2ccccc2)c2c(Br)c4c5ccc(C(C)(C)C)cc5c5cc(C(C)(C)C)ccc5c4n2[B-]1(F)F)C=3Br is ____.
Solution: 0.03

Exercise: Look up photoluminescence quantum yield for this compound: O=S1(=O)c2ccc(-c3ccc(N(c4ccccc4)c4ccccc4)cc3)cc2C2(c3ccccc3-c3ccccc32)c2cc(-c3ccc(N(c4ccccc4)c4ccccc4)cc3)ccc21
Solution: 0.89

Exercise: Reported photoluminescence quantum yield, compound CCCCCCCCOc1ccc(C#Cc2ccc(C#Cc3ccc(OCCCCCCCC)c(OCCCCCCCC)c3)c3nc4c5ccccc5c5ccccc5c4nc23)cc1OCCCCCCCC : ____
Solution: 0.33

Exercise: Requested field: photoluminescence quantum yield. Item: CC1=[N+]2C(=Cc3cccn3[B-]2(F)F)C=C1
Solution: 0.92

Exercise: Param item = CCCCCc1c(C(=O)c2ccc3c4c(cccc24)-c2cccc4c2C3CC=C4)c2ccc3cccc4c5cccc6ccc1c(c65)c2c34 (centres undefined) ; retrieve measured photoluminescence quantum yield.
Solution: 0.082
